- System name: TLR8 (Homo sapiens)
- Construct: human HEK-Blue cells co-expressing a TLR7 or TLR8 gene
- Sequence (Q9NR97 27-1041): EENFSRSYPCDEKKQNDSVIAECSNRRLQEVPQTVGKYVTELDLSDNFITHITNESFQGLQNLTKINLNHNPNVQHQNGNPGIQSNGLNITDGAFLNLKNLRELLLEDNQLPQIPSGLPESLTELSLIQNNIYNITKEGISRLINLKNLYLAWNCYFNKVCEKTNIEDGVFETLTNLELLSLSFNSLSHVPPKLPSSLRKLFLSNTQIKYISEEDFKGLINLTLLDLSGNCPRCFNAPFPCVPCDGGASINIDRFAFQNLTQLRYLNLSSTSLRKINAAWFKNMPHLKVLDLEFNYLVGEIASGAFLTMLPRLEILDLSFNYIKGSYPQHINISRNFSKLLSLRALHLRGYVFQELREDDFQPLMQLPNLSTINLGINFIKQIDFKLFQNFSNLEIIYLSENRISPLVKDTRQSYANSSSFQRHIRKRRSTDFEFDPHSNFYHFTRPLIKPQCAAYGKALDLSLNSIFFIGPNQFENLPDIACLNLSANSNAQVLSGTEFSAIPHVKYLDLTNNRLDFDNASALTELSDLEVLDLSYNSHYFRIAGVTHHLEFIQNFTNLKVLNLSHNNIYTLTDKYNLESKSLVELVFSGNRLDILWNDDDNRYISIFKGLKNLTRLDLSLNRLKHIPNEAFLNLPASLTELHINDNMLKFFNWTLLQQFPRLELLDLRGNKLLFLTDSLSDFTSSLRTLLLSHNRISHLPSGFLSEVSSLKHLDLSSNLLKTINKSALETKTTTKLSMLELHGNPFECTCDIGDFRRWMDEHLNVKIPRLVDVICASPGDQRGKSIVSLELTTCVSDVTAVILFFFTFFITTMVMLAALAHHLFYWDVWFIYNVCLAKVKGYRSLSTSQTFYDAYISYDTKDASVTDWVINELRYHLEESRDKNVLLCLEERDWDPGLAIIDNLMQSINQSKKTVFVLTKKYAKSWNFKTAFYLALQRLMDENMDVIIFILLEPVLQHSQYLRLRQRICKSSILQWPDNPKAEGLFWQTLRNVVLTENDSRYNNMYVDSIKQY
- Assay notes: In vitro human TLR8 binding reporter assay (HEK-Blue, NF-kB/AP1-inducible SEAP)
- Assay type: cell-based
- Setup conditions: activity range class, read-out: TLR8 Agonist EC50
pEC50: −log10 of the molar value.
Assign pEC50 to each entry below.

Problem: Reported pEC50, compound CCC(CO)Cn1cc2c(N)nc3cc(-c4cc[nH]n4)ccc3c2n1 (stereo not shown) [Example 356] : ____
Result: < 4.00

Problem: Reported pEC50, compound Nc1nc2cc(-c3ccn[nH]3)ccc2c2sc(CCCOCc3ccccc3)nc12 [Example 141] : ____
Result: ≥ 6.00

Problem: Reported pEC50, compound CC(C)(Cn1cc2c(N)nc3cc(-c4cc[nH]n4)ccc3c2n1)NC(=O)c1ccc(F)cn1 [Example 293] : ____
Result: < 4.00

Problem: Reported pEC50, compound Cc1nccc(C(=O)NCCn2cc3c(n2)c(N)nc2cc(-c4cc[nH]n4)ccc23)n1 [Example 50] : ____
Result: < 4.00

Problem: Reported pEC50, compound Nc1nc2cc(-c3cc[nH]n3)ccc2c2cn(CCNC(=O)c3ccncn3)nc12 [Example 75] : ____
Result: < 4.00

Problem: Reported pEC50, compound Cc1nc(C(=O)NCCn2cc3c(n2)c(N)nc2cc(-c4cc[nH]n4)ccc23)cs1 [Example 43] : ____
Result: < 4.00

Problem: Reported pEC50, compound Cc1nc(C(=O)NCCn2cc3c(n2)c(N)nc2cc(-c4cc[nH]n4)ccc23)c(C(F)(F)F)o1 [Example 71] : ____
Result: 4.00 to 4.70

Problem: Reported pEC50, compound COC(=O)NCc1nc2c(N)nc3cc(-c4ccn[nH]4)ccc3c2s1 [Example 134] : ____
Result: < 4.00

Problem: Reported pEC50, compound CN(C)Cc1nc2c(N)nc3cc(-c4ccn[nH]4)ccc3c2o1 [Example 145] : ____
Result: < 4.00

Problem: Reported pEC50, compound Nc1nc2cc(-c3cc[nH]n3)ccc2c2cn(CCNC(=O)c3ccccc3F)nc12 [Example 74] : ____
Result: 4.00 to 4.70

Where do the numbers come from? From patent US12037344B2.
